# Tested on: MCF7
# protocol.description: Cytotoxicity against Homo sapiens (human) MCF7 cells assessed as cell viability at 50 uM after 48 hr by MTT assay relative to control
# Type: functional
# condition.info: MCF7, 48 h, read-out: Activity
Square brackets hold non-standard residues; d marks the D form. Peptide text beside a SMILES is read from it. * marks the point of attachment. Fmoc = O=C(OCC1c2ccccc2-c2ccccc21)*; Aib = CC(C)(N)C(=O)O
reported.property: viability at 50 µM (%)
Kindly answer with a numeric value in %, unit omitted.

Exercise: Entry under review: CC(C)(NC(=O)[C@H](Cc1ccc(O)cc1)NC(=O)[C@H](CCC(=O)O)NC(=O)OCC1c2ccccc2-c2ccccc21)C(=O)N[C@@H](CC(N)=O)C(=O)NCC(=O)N[C@@H](CCCNC(=N)N)C(=O)N[C@@H](CCCCN)C(=O)N[C@@H](CCCCN)C(=O)N[C@@H](CCCNC(=N)N)C(=O)N[C@@H](CCCNC(=N)N)C(=O)O (Fmoc-EY[Aib]NGRKKRR-OH) . Reported viability at 50 µM?
Solution: 91.6

Exercise: Do the same for CC(C)(NC(=O)[C@H](Cc1ccc(O)cc1)NC(=O)[C@H](CCC(=O)O)NC(=O)OCC1c2ccccc2-c2ccccc21)C(=O)N[C@@H](CC(N)=O)C(=O)O (Fmoc-EY[Aib]N-OH) please
Solution: 104

Exercise: Do the same for CC(C)(NC(=O)[C@H](Cc1ccc(O)cc1)NC(=O)[C@@H](N)CCC(=O)O)C(=O)N[C@@H](CC(N)=O)C(=O)NCC(=O)N[C@@H](CCCNC(=N)N)C(=O)N[C@@H](CCCCN)C(=O)N[C@@H](CCCCN)C(=O)N[C@@H](CCCNC(=N)N)C(=O)N[C@@H](CCCNC(=N)N)C(=O)O (H-EY[Aib]NGRKKRR-OH) please
Solution: 99.4

Exercise: Do the same for CC(C)(NC(=O)[C@H](Cc1ccc(O)cc1)NC(=O)[C@H](CCC(=O)O)NC(=O)[C@H](CCCNC(=N)N)NC(=O)[C@H](CCCNC(=N)N)NC(=O)[C@H](CCCCN)NC(=O)[C@H](CCCCN)NC(=O)[C@H](CCCNC(=N)N)NC(=O)CN)C(=O)N[C@@H](CC(N)=O)C(=O)O (H-GRKKRREY[Aib]N-OH) please
Solution: 91.6

Exercise: Do the same for N=C(N)NCCC[C@H](NC(=O)[C@H](CCCNC(=N)N)NC(=O)[C@H](CCCCN)NC(=O)[C@H](CCCCN)NC(=O)[C@H](CCCNC(=N)N)NC(=O)CN)C(=O)O (H-GRKKRR-OH) please
Solution: 98.5

Exercise: Do the same for CC[C@H](C)[C@H](NC(=O)[C@H](C)NC(=O)[C@@H](NC(=O)[C@@H](N)Cc1ccc(O)cc1)[C@@H](C)O)C(=O)N[C@@H](C)C(=O)N[C@@H](Cc1c[nH]c2ccccc12)C(=O)N[C@H](C(=O)N[C@@H](CCCCN)C(=O)N[C@@H](C)C(=O)N[C@@H](Cc1ccccc1)C(=O)N[C@H](C(=O)N[C@@H](CCCNC(=N)N)C(=O)N[C@@H](CCCCN)C(=O)N[C@@H](CC(C)C)C(=O)N[C@@H](CCCNC(=N)N)C(=O)N[C@@H](CCCCN)C(=O)O)[C@@H](C)CC)C(C)C (H-YTAIAWVKAFIRKLRK-OH) please
Solution: 97.7

---

# Tested on: MCF7
# protocol.description: Cytotoxicity against Homo sapiens (human) MCF7 cells assessed as cell viability at 100 uM after 48 hr by MTT assay relative to control
# Format: functional
# condition.info: MCF7, 48 h, read-out: Activity
Square brackets hold non-standard residues; d marks the D form. Peptide text beside a SMILES is read from it. * marks the point of attachment. Fmoc = O=C(OCC1c2ccccc2-c2ccccc21)*; Aib = CC(C)(N)C(=O)O
# note: boundary value 90% maps to f; viability at 100 µM below it maps to t

Exercise: Report whether reported viability at 100 µM is lower than 90% (strictly) for CC(C)(NC(=O)[C@H](Cc1ccc(O)cc1)NC(=O)[C@H](CCC(=O)O)NC(=O)[C@H](CCCNC(=N)N)NC(=O)[C@H](CCCNC(=N)N)NC(=O)[C@H](CCCCN)NC(=O)[C@H](CCCCN)NC(=O)[C@H](CCCNC(=N)N)NC(=O)CN)C(=O)N[C@@H](CC(N)=O)C(=O)O (H-GRKKRREY[Aib]N-OH)
Solution: t

Exercise: Do the same for CC(C)(NC(=O)[C@H](Cc1ccc(O)cc1)NC(=O)[C@H](CCC(=O)O)NC(=O)OCC1c2ccccc2-c2ccccc21)C(=O)N[C@@H](CC(N)=O)C(=O)O (Fmoc-EY[Aib]N-OH) please
Solution: f

Exercise: Do the same for CC(C)(NC(=O)[C@H](Cc1ccc(O)cc1)NC(=O)[C@H](CCC(=O)O)NC(=O)OCC1c2ccccc2-c2ccccc21)C(=O)N[C@@H](CC(N)=O)C(=O)NCC(=O)N[C@@H](CCCNC(=N)N)C(=O)N[C@@H](CCCCN)C(=O)N[C@@H](CCCCN)C(=O)N[C@@H](CCCNC(=N)N)C(=O)N[C@@H](CCCNC(=N)N)C(=O)O (Fmoc-EY[Aib]NGRKKRR-OH) please
Solution: t

Exercise: Do the same for N=C(N)NCCC[C@H](NC(=O)[C@H](CCCNC(=N)N)NC(=O)[C@H](CCCCN)NC(=O)[C@H](CCCCN)NC(=O)[C@H](CCCNC(=N)N)NC(=O)CN)C(=O)O (H-GRKKRR-OH) please
Solution: f

Exercise: Do the same for CC[C@H](C)[C@H](NC(=O)[C@H](C)NC(=O)[C@@H](NC(=O)[C@@H](N)Cc1ccc(O)cc1)[C@@H](C)O)C(=O)N[C@@H](C)C(=O)N[C@@H](Cc1c[nH]c2ccccc12)C(=O)N[C@H](C(=O)N[C@@H](CCCCN)C(=O)N[C@@H](C)C(=O)N[C@@H](Cc1ccccc1)C(=O)N[C@H](C(=O)N[C@@H](CCCNC(=N)N)C(=O)N[C@@H](CCCCN)C(=O)N[C@@H](CC(C)C)C(=O)N[C@@H](CCCNC(=N)N)C(=O)N[C@@H](CCCCN)C(=O)O)[C@@H](C)CC)C(C)C (H-YTAIAWVKAFIRKLRK-OH) please
Solution: f

Exercise: Do the same for CC(C)(NC(=O)[C@H](Cc1ccc(O)cc1)NC(=O)[C@@H](N)CCC(=O)O)C(=O)N[C@@H](CC(N)=O)C(=O)NCC(=O)N[C@@H](CCCNC(=N)N)C(=O)N[C@@H](CCCCN)C(=O)N[C@@H](CCCCN)C(=O)N[C@@H](CCCNC(=N)N)C(=O)N[C@@H](CCCNC(=N)N)C(=O)O (H-EY[Aib]NGRKKRR-OH) please
Solution: f

---

# System: MCF7
# protocol.description: Cytotoxicity against Homo sapiens (human) MCF7 cells assessed as cell viability at 25 uM after 48 hr by MTT assay relative to control
# Type: functional
# condition.info: MCF7, 48 h, read-out: Activity
Square brackets hold non-standard residues; d marks the D form. Peptide text beside a SMILES is read from it. * marks the point of attachment. Fmoc = O=C(OCC1c2ccccc2-c2ccccc21)*; Aib = CC(C)(N)C(=O)O
I'd be grateful if you could share measured viability at 25 µM for these entries.
Kindly answer with a numeric value in %, unit omitted.

Exercise: Entry under review: CC(C)(NC(=O)[C@H](Cc1ccc(O)cc1)NC(=O)[C@@H](N)CCC(=O)O)C(=O)N[C@@H](CC(N)=O)C(=O)NCC(=O)N[C@@H](CCCNC(=N)N)C(=O)N[C@@H](CCCCN)C(=O)N[C@@H](CCCCN)C(=O)N[C@@H](CCCNC(=N)N)C(=O)N[C@@H](CCCNC(=N)N)C(=O)O (H-EY[Aib]NGRKKRR-OH) . Reported viability at 25 µM?
Solution: 90.7

Exercise: Do the same for CC(C)(NC(=O)[C@H](Cc1ccc(O)cc1)NC(=O)[C@H](CCC(=O)O)NC(=O)OCC1c2ccccc2-c2ccccc21)C(=O)N[C@@H](CC(N)=O)C(=O)NCC(=O)N[C@@H](CCCNC(=N)N)C(=O)N[C@@H](CCCCN)C(=O)N[C@@H](CCCCN)C(=O)N[C@@H](CCCNC(=N)N)C(=O)N[C@@H](CCCNC(=N)N)C(=O)O (Fmoc-EY[Aib]NGRKKRR-OH) please
Solution: 84.2

Exercise: Do the same for N=C(N)NCCC[C@H](NC(=O)[C@H](CCCNC(=N)N)NC(=O)[C@H](CCCCN)NC(=O)[C@H](CCCCN)NC(=O)[C@H](CCCNC(=N)N)NC(=O)CN)C(=O)O (H-GRKKRR-OH) please
Solution: 93.9

---

# Test system: MCF7
# protocol.description: Cytotoxicity against Homo sapiens (human) MCF7 cells assessed as cell viability at 25 uM after 48 hr by MTT assay relative to control
# Type: functional
# condition.info: MCF7, 48 h, read-out: Activity
Square brackets hold non-standard residues; d marks the D form. Peptide text beside a SMILES is read from it. * marks the point of attachment. Fmoc = O=C(OCC1c2ccccc2-c2ccccc21)*; Aib = CC(C)(N)C(=O)O
reported.property: viability at 25 µM (%)
Kindly answer with a numeric value in %, unit omitted.

Exercise: Entry under review: CC(C)(NC(=O)[C@H](Cc1ccc(O)cc1)NC(=O)[C@H](CCC(=O)O)NC(=O)OCC1c2ccccc2-c2ccccc21)C(=O)N[C@@H](CC(N)=O)C(=O)O (Fmoc-EY[Aib]N-OH) . Reported viability at 25 µM?
Solution: 104

Exercise: Do the same for CC(C)(NC(=O)[C@H](Cc1ccc(O)cc1)NC(=O)[C@H](CCC(=O)O)NC(=O)[C@H](CCCNC(=N)N)NC(=O)[C@H](CCCNC(=N)N)NC(=O)[C@H](CCCCN)NC(=O)[C@H](CCCCN)NC(=O)[C@H](CCCNC(=N)N)NC(=O)CN)C(=O)N[C@@H](CC(N)=O)C(=O)O (H-GRKKRREY[Aib]N-OH) please
Solution: 90.9

Exercise: Do the same for CC[C@H](C)[C@H](NC(=O)[C@H](C)NC(=O)[C@@H](NC(=O)[C@@H](N)Cc1ccc(O)cc1)[C@@H](C)O)C(=O)N[C@@H](C)C(=O)N[C@@H](Cc1c[nH]c2ccccc12)C(=O)N[C@H](C(=O)N[C@@H](CCCCN)C(=O)N[C@@H](C)C(=O)N[C@@H](Cc1ccccc1)C(=O)N[C@H](C(=O)N[C@@H](CCCNC(=N)N)C(=O)N[C@@H](CCCCN)C(=O)N[C@@H](CC(C)C)C(=O)N[C@@H](CCCNC(=N)N)C(=O)N[C@@H](CCCCN)C(=O)O)[C@@H](C)CC)C(C)C (H-YTAIAWVKAFIRKLRK-OH) please
Solution: 101
